Tested on: amastigotes of L. donovani strain MHOM-ET-67/L82
Assay: In vitro anti-L. donovani activity
Type: cell-based, Leishmania donovani
Conditions: average of at least two determinations
pIC50: −log10 of the molar value.
Consider the following compounds; for each one, report its pIC50.

Item: N=C(N)c1cccc(NC(=O)CCCCC(=O)Nc2cccc(C(=N)N)c2)c1 | pIC50: < 4.00

Item: N=C(N)c1ccc(NC(=O)CCCCCCC(=O)Nc2ccc(C(=N)N)cc2)cc1 | pIC50: < 4.00

Item: N=C(N)c1ccc(NC(=O)CCCCC(=O)Nc2cccc(C(=N)N)c2)cc1 | pIC50: < 4.00

Item: N=C(N)c1ccc(NC(=O)CCCCCCCCC(=O)Nc2ccc(C(=N)N)cc2)cc1 | pIC50: 4.16
